tested on: wild-type N2 worms; assay: Pilot DART imaging of N2 worms treated with FUdR in a small-scale vivoChip; assay type: in vivo, C. elegans; conditions: Caenorhabditis elegans; N2 L1 larvae, 0-10,000 μM, 72 hrs at 20° C., D1 adults; read-out: reduction in body length, EC50
observation.type: pEC50
The scale used: pEC50 is minus the common logarithm of the concentration in molar units.

Enquiry: Fill blank: measured pEC50 of the compound O=c1[nH]c(=O)n([C@H]2C[C@H](O)[C@@H](CO)O2)cc1F [FUdR, 5-Fluoro-2′-deoxyuridine] is ____.
Return: 3.50
